test system: A549; test: Cytotoxicity against human A549 cells after 48 hrs by SRB assay; assay type: functional, cell-based; conditions: Homo sapiens, A549, 48 h; read-out: GI50
Result type: log10 GI50 (log10 of the value in nM)
On a log10 scale: recorded GI50, unit nM.

# example entries with known answers
C/C=C1\NC(=O)[C@H](Cc2ccc(OC)cc2)NC(=O)[C@@H](C(C)C)NC(=O)[C@@H]([C@H](C)CC)NC(=O)[C@H](NC(=O)[C@H](NC(=O)[C@H](CCCN)NC(=O)[C@H]2CCCN2C(=O)[C@H](NC(=O)[C@@H](NC(=O)[C@@H](NC(=O)[C@H](NC(=O)CC[C@@H](C)CC)C(C)C)[C@@H](C)O)C(C)C)C(C)C)[C@H](C)CC)[C@H](C)OC(=O)[C@H](C(C)C)NC1=O    2.72
C/C=C1\NC(=O)[C@H](Cc2ccccc2)NC(=O)[C@@H](C(C)C)NC(=O)[C@@H]([C@H](C)CC)NC(=O)[C@H](NC(=O)[C@H](NC(=O)[C@H](CCCNC(=O)c2cc(F)c(F)c(F)c2F)NC(=O)[C@H]2CCCN2C(=O)[C@H](NC(=O)[C@@H](NC(=O)[C@@H](NC(=O)[C@H](NC(=O)CCCC(C)C)C(C)C)[C@@H](C)O)C(C)C)C(C)C)[C@H](C)CC)[C@H](C)OC(=O)[C@H](C(C)C)NC1=O    3.02
C=C1NC(=O)[C@H](Cc2ccccc2)NC(=O)[C@@H](C(C)C)NC(=O)[C@@H]([C@H](C)CC)NC(=O)[C@H](NC(=O)[C@H](NC(=O)[C@H](CCCN)NC(=O)[C@H]2CCCN2C(=O)[C@H](NC(=O)[C@@H](NC(=O)[C@@H](NC(=O)[C@H](NC(=O)CCCC(C)C)C(C)C)[C@@H](C)O)C(C)C)C(C)C)[C@H](C)CC)[C@H](C)OC(=O)[C@H](C(C)C)NC1=O    3.08
C/C=C1\NC(=O)[C@H](Cc2ccccc2)NC(=O)[C@@H](C(C)C)NC(=O)[C@@H]([C@H](C)CC)NC(=O)[C@H](NC(=O)[C@H](NC(=O)[C@H](CCCN)NC(=O)[C@H]2CCCN2C(=O)[C@H](NC(=O)[C@@H](NC(=O)[C@@H](NC(=O)[C@@H](CCC(N)=O)NC(=O)CCCC(C)C)[C@@H](C)O)C(C)C)C(C)C)[C@H](C)CC)[C@H](C)OC(=O)[C@H](C(C)C)NC1=O    2.37
C/C=C1\NC(=O)[C@H](Cc2ccccc2)NC(=O)[C@@H](C(C)C)NC(=O)[C@@H]([C@H](C)CC)NC(=O)[C@H](NC(=O)[C@H](NC(=O)[C@H](CCCN)NC(=O)[C@H]2CCCN2C(=O)[C@H](NC(=O)[C@@H](NC(=O)[C@@H](NC(=O)[C@H](NC(=O)CCCCCCCCCCCCCCCCCCC)C(C)C)[C@@H](C)O)C(C)C)C(C)C)[C@H](C)CC)[C@H](C)OC(=O)[C@H](C(C)C)NC1=O    3.27

Report log10 GI50 from A549 testing of C/C=C1\NC(=O)[C@H](Cc2ccccc2)NC(=O)[C@@H](C(C)C)NC(=O)[C@@H]([C@H](C)CC)NC(=O)[C@H](NC(=O)[C@H](NC(=O)[C@H](CCCN)NC(=O)[C@H]2CCCN2C(=O)[C@H](NC(=O)[C@@H](NC(=O)[C@@H](NC(=O)[C@H](NC(=O)c2ccc(C(F)(F)F)cc2)C(C)C)[C@@H](C)O)C(C)C)C(C)C)[C@H](C)CC)[C@H](C)OC(=O)[C@H](C(C)C)NC1=O
2.31

// output log10 GI50; input C/C=C1\NC(=O)[C@H](Cc2ccccc2)NC(=O)[C@@H](C(C)C)NC(=O)[C@@H]([C@H](C)CC)NC(=O)[C@H](NC(=O)[C@H](NC(=O)[C@H](CCCN)NC(=O)[C@H]2CCCN2C(=O)[C@H](NC(=O)[C@@H](NC(=O)[C@@H](NC(=O)[C@H](NC(=O)CCCCCC)C(C)C)[C@@H](C)O)C(C)C)C(C)C)[C@H](C)CC)[C@H](C)OC(=O)[C@H](C(C)C)NC1=O ; system A549
3.07

Fill in: log10 GI50 on A549, entry C/C=C1\NC(=O)[C@H](Cc2ccc(Cl)c(Cl)c2)NC(=O)[C@@H](C(C)C)NC(=O)[C@@H]([C@H](C)CC)NC(=O)[C@H](NC(=O)[C@H](NC(=O)[C@H](CCCN)NC(=O)[C@H]2CCCN2C(=O)[C@H](NC(=O)[C@@H](NC(=O)[C@@H](NC(=O)[C@H](NC(=O)CC[C@@H](C)CC)C(C)C)[C@@H](C)O)C(C)C)C(C)C)[C@H](C)CC)[C@H](C)OC(=O)[C@H](C(C)C)NC1=O
2.04

Fill in log10 GI50 for C/C=C1\NC(=O)[C@H](Cc2ccccc2)NC(=O)[C@@H](C(C)C)NC(=O)[C@@H]([C@H](C)CC)NC(=O)[C@H](NC(=O)[C@H](NC(=O)[C@H](NC(=O)[C@@H](NC(=O)[C@@H](NC(=O)[C@H](NC(=O)CCCC(C)C)C(C)C)[C@@H](C)O)C(C)C)C(C)C)[C@H](C)CC)[C@H](C)OC(=O)[C@H](C(C)C)NC1=O tested with A549.
4.36

Enter recorded log10 GI50 with A549 for C/C=C1\NC(=O)[C@H](Cc2ccccc2)NC(=O)[C@@H](C(C)C)NC(=O)[C@@H]([C@H](C)CC)NC(=O)[C@H](NC(=O)[C@H](NC(=O)[C@H](CCCN)NC(=O)[C@H]2CCCN2C(=O)[C@H](NC(=O)[C@@H](NC(=O)[C@H](CCC(=O)O)NC(=O)[C@H](NC(=O)CCCC(C)C)C(C)C)C(C)C)C(C)C)[C@H](C)CC)[C@H](C)OC(=O)[C@H](C(C)C)NC1=O here.
3.21
